Origin of measurements: PubChem BioAssay (NCI)

As shown below, each of these molecules has a reported TGI value.
System: OVCAR-4 ovarian
Assay: NCI tumour cell line growth inhibition, 48 h

Some molecules with recorded TGI:
MOLECULE	TGI
Nc1c(C(=O)Nc2ccc([As](=O)(O)O)cc2)cnc2nnnn12	> 100 µM
CCN(CCCCCCCCCCN1CC(=O)N(CCCCCCCCCCN(CC)Cc2ccccc2OC)CC1=O)Cc1ccccc1OC	6.59 µM
COc1ccc(C2=C(Cl)C(=O)O/C2=C\c2ccc(OC)c(Br)c2)cc1Cl	> 100 µM

[ask] Using known records, supply TGI for Cc1cc(OCc2nnc3sc(NC(=O)c4ccccc4)nn23)ccc1Cl
[reply] > 100 µM

[ask] Using known records, supply TGI for C=C1CC(COc2ccc3c(C)c(C)c(=O)oc3c2C)(c2ccccc2)OC1=O (stereo not drawn)
[reply] 4.82 µM

[ask] Using known records, supply TGI for Cc1cc(C)c2c(c1)CN1CN2Cc2cc(C)cc(C)c21
[reply] 50.8 µM

[ask] Using known records, supply TGI for CC[O-].CC[O-].O=C1C(=C([O-])c2ccccc2)C(=O)c2ccccc21.O=C1C(=C([O-])c2ccccc2)C(=O)c2ccccc21.[Ti+4]
[reply] > 100 µM

[ask] Using known records, supply TGI for Oc1c(OCc2nnc(CCCCCCCCc3nnc(COc4ccc5ccccc5c4O)o3)o2)ccc2ccccc12
[reply] > 100 µM

[ask] Using known records, supply TGI for COc1cc2[nH]c(=O)c3cc(-c4ccccc4)cc4c(Cl)nc(c1OC)c2c43
[reply] > 64.4 µM

[ask] Using known records, supply TGI for C/C(=N\O)c1ccc(Nc2cc(-n3nnc4ccccc43)nc3ccccc23)cc1
[reply] > 72.2 µM

[ask] Using known records, supply TGI for Clc1ccccc1NN(Cc1ccccn1)c1ccccc1Cl
[reply] 37.2 µM

[ask] Using known records, supply TGI for Clc1cc(C(c2cc(Cl)sc2Cl)c2cc(Cl)sc2Cl)c(Cl)s1
[reply] > 100 µM

[ask] Using known records, supply TGI for CC12CC3(C)CC(C)(C1)CC(N=[N+]=[N-])(C2)C3
[reply] > 100 µM

* * *

Test system: OVCAR-8 ovarian
Experiment: NCI tumour cell line growth inhibition, 48 h
MEASURE NAME: TGI

MOLECULE	REPORTED MEASUREMENT
CC(C)=CCC12Cc3ccc(O)cc3C(C(C)CN1)C2C (centres undefined)	> 100 µM
Cc1ccc(C(=O)Nc2ccc(CN3CCN(C)CC3)c(C(F)(F)F)c2)cc1C#Cc1cnc(N)c2ccc(F)cc12	2.37 µM
CNC(=O)Nc1ccc(-c2nc(N3CCOCC3)nc3c2cnn3C2CCOCC2)cc1	6.47 µM
Nc1c(C(=O)Nc2ccc([As](=O)(O)O)cc2)cnc2nnnn12	> 100 µM
Nc1nc2c(ncn2Cc2ccccc2CCO)c(=O)[nH]1	> 100 µM

[ask] Using known records, supply TGI for N/C(=N\OC(=O)c1ccccc1)C(C(=O)NOC(=O)c1ccccc1)C1CCCCC1 (centres undefined)
[reply] 14.8 µM

[ask] Using known records, supply TGI for O=C1CS/C(=N/N=C/c2cn(Cc3ccc(Cl)cc3Cl)c3ccccc23)N1
[reply] 30.6 µM

* * *

Tested on: T-47D breast
Assay: NCI tumour cell line growth inhibition, 48 h
MEASURE NAME: TGI

[ask] Using known records, supply TGI for Cc1cn(CCCCCOC(=O)NC(CCCNC(N)=O)C(=O)O)c(=O)[nH]c1=O (stereo not given)
[reply] > 100 µM

[ask] Using known records, supply TGI for CC1(C)N=C(N)N=C(N)N1c1cccc(OCc2cccc(N)c2)c1
[reply] > 100 µM

[ask] Using known records, supply TGI for CCN(c1ccc(CO)c(Cl)c1)C(C)c1ccc(F)cc1 (stereo not given)
[reply] 18.2 µM

[ask] Using known records, supply TGI for O=C(CC(C(=O)c1cccs1)c1ccc2c(c1)OCO2)c1ccc(Br)cc1 (stereo not given)
[reply] > 100 µM

[ask] Using known records, supply TGI for COc1ccc(OC/C(N=Cc2ccncc2)=N/NC(=O)c2ccncc2)cc1
[reply] > 100 µM
